System: MS2 coat protein
Assay: apparent KD of MS2 coat protein; designed switch direction (-1 OFF switch, 1 ON switch): -1; higher = weaker reporter binding
Conditions: Eterna round: R95; input ligand: none
Each entry falls into one class according to its apparent KD of MS2 coat protein; the ranges are lower level = under 30 nM, middle level = from 30 nM up to 50 nM, upper level = 50 nM and over

Study these solved cases before continuing.
Query: Classify this sequence: AAAACACAUGAGGAUCACCCAUGUGAGGAUAUGUCCAUAUUCGGCAAAUCGGAUAUGGACAGAAGGCACAUAAA [JR_Exclusion1_Sub014] (puzzle: Exclusion 1)
Reply: middle level

Query: Please do the same for ACCACCUUAGUCAGGAUAUAGCUUCUAGCAAGAUACUAGAAGGGACAUGAGGAUCACCCAUGUAAAGGUGCUAA [Ramais] (puzzle: Brourd's mod of Exclusion 4) as well.
Reply: lower level

Query: Lookup AAAUAAUCAGGAUAUACAUGAGGAUCACCCAUGUACCUCUUGUACGAGGGCCGCCCGUGUAGAAGGGAUGACAA [Arralara] (puzzle: Exclusion 3)
Reply: middle level

Query: Same read-out for AGUACUAACACGAGAGUGUUAGUACAAUAAGCUUGUGUUACAUGAGGAUCACCCAUGUCCUCAUAAGCUCGUCUUAU [Mat - Sensor v3 - Turn-off var 2 - D53] (puzzle: Sensor v3, turn-off variant 2) ?
Reply: upper level

Query: Also check AAAUAACAAGCGAGAUCCUACAUGAGGAUCACCCAUGUGCUCGUCUUAAUAAGUACUAUCACGAAAGUGAUAGUACA [Mat - Sensor v3 - turn-off var 1 - Eli Mod - D67] (puzzle: Sensor v3, turn-off variant 1)
Reply: lower level

Query: What do you have for CUGGUCCGAGGAUAUAUUAAGUGAAACAUGAGGAUCACCCAUGUAAUUUAAUGGAUGUAAAUAGAAGGCGGACUAG [Mat - Exclusion 5 - JL mod - D39] (puzzle: Exclusion 5) ?
Reply: middle level

Query: GCAAGCGACUAGGCUCGUCUUAUAUUGAAAAGAUUGAAAACAUGAGGAUCACCCAUGUAUGUGGGAGAGUUGAAGUG [JR_SV3TOV2_Sub011] (puzzle: Sensor v3, turn-off variant 2) ?
Reply: upper level

Query: Could you do the same for GAUAAGGUAGGAUAUACGAAGAAAGAGGGUAGUAAUAAUACACAUGAGGAUCACCCAUGUAGAAGGACCAAUAG [Mat - Exclusion 2 - Mod of my Tesla design - D43] (puzzle: Exclusion 2) , please?
Reply: lower level

Query: Repeat with CUCUUGUCAGGAUAUCAACGCCAUCCACAUGGACGGCGAAAUGAGAAGGGACAUGAGGAUCACCCAUGUUAAAA [Xeveleqube] (puzzle: Exclusion 4)
Reply: upper level

Query: Ok, now GUAGAGUAAGGAUAUCAUGAAUAGGAUAGAAUGGUUAGAAAUGAGAAGGUACAUGAGGAUCACCCAUGUAAUGU [Excluse me!!!! 12 - Jieux - Exclusion 4] (puzzle: Exclusion 4)
Reply: lower level

New cases:
Query: Which band does AAGAAGAUAGGAUAUACGAGGAGAGGAGAGAAGAGGUGAGGACAUGAGGAUCACCCAUGUAGAAGGAUCAGGAA [JR_Exclu2_Sub063] (puzzle: Exclusion 2) fall in?
Reply: upper level

Query: Input UUUUAACAUGAGGAUCACCCAUGUCAGGAUAUGGUAUUUUUUUUUUUUUUUUUUUUUUCCAGAAGGGACAUUUU [My solution] (puzzle: Exclusion 1)
Reply: lower level

Query: Now the same for ACGUGAUAUCUGUCGGUGGACAUGAGGAUCACCCAUGUAAGCUUUUUGCUCGUCUUACAACCCGGUGACAGACCUUC [Essodiis] (puzzle: Sensor v3, turn-off variant 1)
Reply: upper level

Query: How about AGGUGGAAGCAGGAUAUGCUAGAAGUGUAGAAUGCAGAAGGGCUAACAUGAGGAUCACCCAUGUAAGAGGUGUA [JR_E6_Sub051] (puzzle: Exclusion 6) ?
Reply: upper level

Query: Lookup AAAACUGCCCAUGACCGCAAGCUUUUUGCUUGUCUUACCACAUGAGGAUCACCCAUGUGUCAUGGGCUCCUUAUAAA [Tisoanor] (puzzle: Sensor v3, turn-off variant 2)
Reply: lower level

Query: Now this one: AAUACACAUGAGGAUCACCCAUGUUAGGAUAUGAGCAGACAGACAGACAGACAGACGAUCAGAAGGAAUAGGAA [Excls1-V] (puzzle: Exclusion 1)
Reply: middle level

Query: What about UACGGGUCAGGAUAUGCGAGGGAGUGGGAAAUAGGAAGGUAGCAGAAGGGACAUGAGGAUCACCCAUGUAAGGA [JR_Exclu4_Sub0100] (puzzle: Exclusion 4) ?
Reply: middle level

Query: Likewise for AGUAACUAUCACGAAAGUGAUAGUUACAAUAGCAAGUGAACAUGAGGAUCACCCAUGUCCUCAUUUGCUCGUCUUAU [Sensor 3 - 20] (puzzle: Sensor v3, turn-off variant 2) ?
Reply: lower level

Query: Similarly, GGGAACGUAGGAUAUACAUGAGGAUCACCCAUGUGAGGAAGGAGUAGGAAGCGUGGAAGUAGAAGGACGGAGAG [JR_Exclu3_Sub074] (puzzle: Exclusion 3) ?
Reply: middle level

---

Test system: MS2 coat protein
Assay: apparent KD of MS2 coat protein; designed switch direction (-1 OFF switch, 1 ON switch): -1; higher = weaker reporter binding
Settings: input ligand: none
readout_label: apparent KD of MS2 coat protein (nM)
Please respond with the number in nM and leave the unit unwritten.

Reference set (3 entries):
Query: Query (sequence): AGCGAAGAGACAGGAUAUGAGAAUAGAUAGAGCUCAGAAGGGUCACAUGAGGAUCACCCAUGUAAAGUCUUGAGGCUGCGUGGU [Prohibition 10 - Jieux - Exclusion NG 1] (Eterna round: R96, puzzle: Exclusion NG 1) ; field requested: apparent KD of MS2 coat protein
Reply: 61.7

Query: What do you have for CCCUGACAUGAGGAUCACCCAUGUUAGGAUAUAACAUUUGACACUACAGUGUGAAGUGUUAGAAGGGAUAUGGG [-27.9, -26.2 kcal, A 31%] (Eterna round: R97, puzzle: Exclusion 1) ?
Reply: 28.7

Query: Then GGAGGAGAGGUAAGGAUAUGGUGGUGGAAACACCACCAGAAGGUACAUGAGGAUCACCCAUGUAAGGAAGGAGG [AK-MS2ROC-r4-Bmoexclusion4-17.1] (Eterna round: R97, puzzle: Brourd's mod of Exclusion 4) ?
Reply: 26.6

Now consider the entry below.
Query: Item GAUCCACAUGAGGAUCACCCAUGUUAGGAUAUGACAACGACUCGCACUACGUUGUUGCUCAGAAGGAGCACCCA [Eternabot (Original) Solution 10] (Eterna round: R97, puzzle: Exclusion 1) has what recorded apparent KD of MS2 coat protein?
Reply: 18.3

---

The sequences listed here are annotated with their apparent KD of MS2 coat protein.
System: MS2 coat protein
Experiment: apparent KD of MS2 coat protein; higher = weaker reporter binding
Details: Eterna round: R107; input ligand: none
Output spec: scalar in nM, unitless text.

Example results:
Query: Which apparent KD of MS2 coat protein is reported for this sequence? UAUCCACAUGAGGAUCACCCAUGUUAGGAAGGAGCGGUGAAUGCACCAGGUAGGUCGCCUAGCUGAGGACUGUCGGUGGAUUCGU [Exclusion - Arginine A (Freestyle 19)]
Reply: 39.4

Query: Query GUAGCGACGACGGCCGCCACUCACAGGUGAGGGUAGACCAACCUUCACAUGAGGAUCACCCAUGUGAGGACCGGGUUGUCGGUAC [#11 Exclusion Tryptophan B] next
Reply: 134

Query: Similarly, `GGAUAGGACACGGCCGCCACUAGCUAGGAUACUAGCAACAUUUCCUCACUUGAGGAUCACCCAAGUAGGACCGGGUGUCCUAUCG` ?
Reply: 162

Query: Same thing, different sequence: GGAUAGGACAGAAGGAGCGACGUGAGGCGAAAGCCAAUCCUUCAACAUGAGGAUCACCCAUGUCAGGUAGGUCGCUGUCCUAUCG [ArgBX 5]
Reply: 20.9

Query: Now consider CCCAAUUAGAUCUUUGGAAUUUUACUCGAAGGAGCGUCAUAGUAGGCAGGUAGGUCGCGAGACAUGAGGAUCACCCAUGUAGAGA [btbmullin] and answer again.
Reply: 40.9

Query: Another sequence: AUACAUGAGGAUCACCCAUGUCCUCGUGAUCGAGGACCGGUACGGCCGCCACUCGGUCCUCGCGAGGAGGAGUCAAAGACUCCAA [Omei Trp A SS A v4]
Reply: 82.9

Query: Next sequence up: ACGCUGAUUGAUUACAAUCAGCGAAAAGAUACCAGUGGGUAAUCCCACCCUUGGCAGCUUAAACAUGAGCAUCAGCCAUGUGGUA [TheoAS 15 #MS2Right #BothOrNeither #AlternativeMS2]
Reply: 119

Query: Now the same for UCGCUCUGGGUGAGAUCCGGAGAUAUGGAAGGAGCGCUGAUUCCAGCAGGUAGGUCGCCAACGGACAUGAGGAUCACCCAUGUAC [Same State - Arginine A (Freestyle 11)]
Reply: 46.9

Query: How about CUGACAGACUCGGCCGCCACUGAUAGUAGGACAUGAGGAUCACCCAUGUAAACAAACCUCAUAGCCAGGACCGGGAGUCACGAAG [Same State Tryptophan B GF 21] ?
Reply: 45.6

Query: Repeat for the following sequence: GGCCCUGCGAGCGCUCGCAGGGCCGCGGAUACCAGCGAGGUCCAUCGCCCUUGGCAGCCGAACAUGAGGAUCACCCAUGUCGGUA [#1 Same State - Theophylline A Attempt #13 (HarryS)]
Reply: 9.84

Next:
Query: Given the entry CCCUGGGUGGGAAGGAGCGCAUAGUGAACAUGAGGAUCACCCAUGUGUAGACGUGAGUCACUGCAGGUAGGUCGCCCACCCAGGG [SS-ArgB23] , report its measured apparent KD of MS2 coat protein.
Reply: 27.5

Query: Here is the next sequence: AUAUUAAUCGGAAGGAGCGGUACAUGAGGAUCACCCAUGUGUGAAGCGAGCAGAUCCCGUUACCAGGUAGGUCGCCGAGUUAUGA [XArg-B6]
Reply: 213

Query: Likewise for AGAUGUAGCGGAAGGAGCGACAAGAGGAUCACCCUUGUCUCCCGUUGUGGGAGUUCCUUAGGUCAGGUAGGUCGCCGUUACGUCA [Omei Arg B SS B v4] ?
Reply: 22.9

Query: // next record GCGAUGGAGCGAAGGAGCGGCUAUCACCGACAAAACAUGAGGAUCACCCAUGUUGGCAGUGGCCAGGUAGGUCGCGCUCCAUCGC [EAB NP+V+V2 #8]
Reply: 11.4

Query: Moving on to GCUGCCAUACGAAGGAGCGCUGCUGCGAUGUGGCGAACAUGAGGAUCACCCAUGUGGCAGCAGCAGGUAGGUCGCGUAUGGCAGC [#01 Exclusion - Arginine B]
Reply: 144

Query: Would you mind doing UCGCUCUGGGUGGAAUCCGGAGAUGUGGAAGGAGCGCUCGAAAGGGCAGGUAGGUCGCCAACGGACAUGAGGAUCACCCAUGUAC [#23 Same State - Arginine A] as well?
Reply: 25.4

Query: And GGGCCCGGGCGCGAGCCCGGGCCCAUUGAUACCAGUGAAGAAGAGCGCCCUUGGCAGCGAAUCCUAACAUGAGGAUCACCCAUGU [5.P] ?
Reply: 43.6

Query: Moving on to GGGUGGUAGGCGGCCGCCACUGAUUUUUAUAUAUAUAUGACAUGAGGAUCACCCAUGUAGAUAUGCAGGACCGGGCCUGUUGUUU [aaaN]
Reply: 22.2

Recorded values, source the supplement of paper PMC9170038.
